system: K4 kissing-loop RNA reporter; test: apparent KD of K4 kissing-loop reporter; higher = weaker reporter binding; conditions: Eterna round: R107; input ligand: arginine 13.2 mM;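 note: bound reporter read as fluorescence of individual clusters on recovered sequencing chips by microscopy, with normalized cluster intensities fitted with a binding model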
Would you please tag the item condition met when its apparent KD of K4 kissing-loop reporter is 300 nM or above, and condition not met when it is below?

Example results:
>  <RECORD_SEQUENCE>
GGGAAGAAGGCGGCCGCCACUGCAGAAGAGACAGAGAGGGAAGAAGAGGAGUGAUGUUCCAAGAACAGGACCGGGCCAAGAAGGG [whbob_SS_Tryp_B_t29]

>  <ANSWER_LABEL>
condition not met

$$$$
>  <RECORD_SEQUENCE>
AGGCCACACAGCGAGUGAUGUUUGCGUUAUCGAGGACCGGUACGGCCGCCACUCGGCCUUUAGCGCCUUACCAAUUAGGUGUUGC [theeternabot_sameState_KL_Trp_A_46]

>  <ANSWER_LABEL>
condition met

$$$$
>  <RECORD_SEQUENCE>
GCCGCAAGGCUAGCAGCAAUAGGCGCUCGCUAGGAUAUCUGGAAACAGAGAAGGAGCUGGAGUGAUGUUUUACCUCCUUGUUAUU

>  <ANSWER_LABEL>
condition met

$$$$

Qu. Decide: is the reported value of apparent KD of K4 kissing-loop reporter for AUUUAUUCGAGUGAUGUUCGUGAUUUUUCAGAGGAUAUGCGUAAUAGCAGAAGGCUGUAUUUAUAUAUAUUUUGAUUUUUUUAAA [JR_Nu3_ExcFMNA_Sub024] equal to or greater than 300 nM?
Ans. condition not met

Qu. Decide: is the reported value of apparent KD of K4 kissing-loop reporter for UGUGAGCUGUCGACAAAAGUCGACUAAAACGAGGAUAUGACGAAAGUCAGAAGGCGUCAAUAAUGGAGUGAUGUUCCUGCUCACU [FmnA 9 #SwitchBubble #K4Late] equal to or greater than 300 nM?
Ans. condition met
